Assay: Stability of cannabinoid compounds and Vitamin E components in Beverage 2 (AB Red) by LCMSMS
Assay type: physicochemical
Conditions: stored at 21-25° C., 24 days
Field: Stability of Plant-Derived Cannabinoid Compounds in AB Red. Provide a value for each of the molecules that follow.
Show the value, then the unit it is measured in.

Short answer for CCCCCc1cc(O)c2c(c1)OC(C)(C)c1ccc(C)cc1-2 [CBN, cannabinol] : Stability of Plant-Derived Cannabinoid Compounds in AB Red was 2.78 µg/mL

For reference, reported Stability of Plant-Derived Cannabinoid Compounds in AB Red for C=C(C)[C@@H]1CCC(C)=C[C@H]1c1c(O)cc(CCCCC)c(C(=O)O)c1O [CBDA, cannabidiolic acid] stands at 1.65 µg/mL

Note to self: Stability of Plant-Derived Cannabinoid Compounds in AB Red recorded for CCCCCc1cc(O)c2c(c1)OC1(C)CCC3C1C2C3(C)C (stereo not shown) [CBL, cannabicyclol] was 0.50 µg/mL

So, CCCCCc1cc(O)c2c(c1)OC(C)(C)[C@@H]1CCC(C)=C[C@@H]21 [D9 THC, delta-9-tetrahydrocannabinol, reference compound] ? Its Stability of Plant-Derived Cannabinoid Compounds in AB Red was 12.5 µg/mL

* * *

Would you mind telling me the reported Stability of Plant-Derived Cannabinoid Compounds in AB White, 8° C. of each entry?
Assay: Stability of cannabinoid compounds and Vitamin E components in Beverage 1 (AB White) by LCMSMS
Assay type: physicochemical
Conditions: AB White stored at 8° C.; 2 days

The molecule listed as C=C(C)[C@@H]1CCC(C)=C[C@H]1c1c(O)cc(CCCCC)c(C(=O)O)c1O shows Stability of Plant-Derived Cannabinoid Compounds in AB White, 8° C. equal to 1.76 µg/mL

Query C=C(C)[C@@H]1CCC(C)=C[C@H]1c1c(O)cc(CCCCC)cc1O [CBD, cannabidiol, reference compound] yields Stability of Plant-Derived Cannabinoid Compounds in AB White, 8° C. of 27.67 µg/mL

Record C=C(C)[C@@H]1CCC(C)=C[C@H]1c1c(O)cc(CCC)cc1O , field Stability of Plant-Derived Cannabinoid Compounds in AB White, 8° C.: 0.147 µg/mL

Record CCCCCc1cc(O)c(C/C=C(\C)CCC=C(C)C)c(O)c1 , field Stability of Plant-Derived Cannabinoid Compounds in AB White, 8° C.: 4.91 µg/mL

The recorded Stability of Plant-Derived Cannabinoid Compounds in AB White, 8° C. for entry CCCCCc1cc(O)c2c(c1)OC(C)(C)c1ccc(C)cc1-2 equals 2.72 µg/mL

Measured Stability of Plant-Derived Cannabinoid Compounds in AB White, 8° C. of CCCCCc1cc(O)c2c(c1)OC1(C)CCC3C1C2C3(C)C (stereo not drawn) : 0.542 µg/mL

* * *

Test: Stability of cannabinoid compounds and Vitamin E components in Beverage 2 (AB Red) by LCMSMS
Format: physicochemical
Settings: stored at 21-25° C., 3 days
Assign T to entries whose Stability of Plant-Derived Cannabinoid Compounds in AB Red meets or exceeds 2 µg/mL; assign F to the rest.

Textbook exercise: given the entry C=C(C)[C@@H]1CCC(C)=C[C@H]1c1c(O)cc(CCC)cc1O , state whether its Stability of Plant-Derived Cannabinoid Compounds in AB Red is greater than or equal to 2 µg/mL.
F

Reported Stability of Plant-Derived Cannabinoid Compounds in AB Red reaches at least 2 µg/mL for CCCCCc1cc(O)c2c(c1)OC(C)(CCC=C(C)C)C=C2 (stereo not drawn) ?
F

Form field: Stability of Plant-Derived Cannabinoid Compounds in AB Red at least 2 µg/mL? Entry: CCCCCc1cc(O)c(C/C=C(\C)CCC=C(C)C)c(O)c1
T

# check: Stability of Plant-Derived Cannabinoid Compounds in AB Red of CCCc1cc(O)c2c(c1)OC(C)(C)[C@@H]1CCC(C)=C[C@@H]21 [THCV, delta-9-tetrahydrocannabivarin] is greater than or equal to 2 µg/mL
T

Say whether C=C(C)[C@@H]1CCC(C)=C[C@H]1c1c(O)cc(CCCCC)c(C(=O)O)c1O shows Stability of Plant-Derived Cannabinoid Compounds in AB Red of 2 µg/mL or more.
F

Would you say CCCCCc1cc2c(c(O)c1C(=O)O)[C@@H]1C=C(C)CC[C@H]1C(C)(C)O2 [D9 THCA, delta-9-tetrahydrocannabinolic acid] shows Stability of Plant-Derived Cannabinoid Compounds in AB Red at minimum 2 µg/mL?
F

Textbook exercise: given the entry CCCCCc1cc(O)c2c(c1)OC1(C)CCC3C1C2C3(C)C (stereo not drawn) , state whether its Stability of Plant-Derived Cannabinoid Compounds in AB Red is greater than or equal to 2 µg/mL.
F

Determine whether this molecule has Stability of Plant-Derived Cannabinoid Compounds in AB Red no lower than 2 µg/mL: CCCCCc1cc(O)c2c(c1)OC(C)(C)[C@@H]1CCC(C)=C[C@@H]21 [D9 THC, delta-9-tetrahydrocannabinol, reference compound]
T

Textbook exercise: given the entry CCCCCc1cc(O)c2c(c1)OC(C)(C)c1ccc(C)cc1-2 , state whether its Stability of Plant-Derived Cannabinoid Compounds in AB Red is greater than or equal to 2 µg/mL.
T

// provenance: patent US20260130395A1
